molecular target: PAR2 (Homo sapiens, UniProt P55085); construct: Human embryonic kidney cell line HEK293 cells cultured using DMEM culture medium; endogenous in cells; host or cells: HEK293; test: Intracellular calcium concentration measurement (trypsin-induced calcium elevation, FDSS6000); assay type: cell-based; details: HEK293 cells, trypsin 5 U/mL as agonist, test compound added 30 min before measurement; read-out: Inhibitory activity on intracellular calcium elevation (IC50 (nM))
Sequence (P55085 26-397): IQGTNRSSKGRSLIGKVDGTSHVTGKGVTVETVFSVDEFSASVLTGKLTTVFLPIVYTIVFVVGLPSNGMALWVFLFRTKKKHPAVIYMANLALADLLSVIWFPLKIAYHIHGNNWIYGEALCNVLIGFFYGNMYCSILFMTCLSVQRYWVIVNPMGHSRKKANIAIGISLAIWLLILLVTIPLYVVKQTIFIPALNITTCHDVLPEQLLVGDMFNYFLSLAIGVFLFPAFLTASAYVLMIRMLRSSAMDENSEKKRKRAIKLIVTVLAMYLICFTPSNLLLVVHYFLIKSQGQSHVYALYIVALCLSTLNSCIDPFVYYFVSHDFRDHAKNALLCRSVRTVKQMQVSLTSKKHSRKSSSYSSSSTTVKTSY
QUANTITY_NAME: IC50

// worked examples, IC50 included
COMPOUND: CC(C)CN(c1cc(-c2cc(F)c(F)c(F)c2)nc2cc(C(=O)N3C[C@@H]4[C@@H](CC(=O)O)[C@@H]4C3)nn12)[C@@H](C)c1ccccc1
RESULT: 26.3 nM

COMPOUND: C[C@@H](c1ccccc1)N(C)c1cc(-c2cc(F)c(F)c(F)c2)nc2cc(C(=O)N3CCC(CC(=O)O)CC3)nn12 [Reference Example 1, reference compound]
RESULT: 8.27 nM

The record that follows has no IC50 shown yet.
[ask] I would be grateful if you could share the reported IC50 for COc1cccc(C)c1N(C)c1cc(-c2cc(F)c(F)c(F)c2)nc2cc(C(=O)N3CC[C@@H](CC(=O)O)[C@@H](F)C3)nn12 (relative stereo) .
[reply] 2.45 nM

----------
molecular target: PAR2 (Mus musculus, UniProt P55086); construct: orally administered to C57BL/6J male mice (Charles River), 6-10 weeks of age; tissue Charles River; host or cells: Living C57BL/6J male mice (in vivo; saliva secretion); test: Measurement of PAR2 agonist (SLIGRL-NH2)-induced salivation in mouse; assay type: in vivo; conditions: C57BL/6J male mice, 0.3 mg/mL solution 10 mL/kg orally, 60 min before SLIGRL-NH2 i.p., saliva collected 10 min
Sequence (P55086 26-399): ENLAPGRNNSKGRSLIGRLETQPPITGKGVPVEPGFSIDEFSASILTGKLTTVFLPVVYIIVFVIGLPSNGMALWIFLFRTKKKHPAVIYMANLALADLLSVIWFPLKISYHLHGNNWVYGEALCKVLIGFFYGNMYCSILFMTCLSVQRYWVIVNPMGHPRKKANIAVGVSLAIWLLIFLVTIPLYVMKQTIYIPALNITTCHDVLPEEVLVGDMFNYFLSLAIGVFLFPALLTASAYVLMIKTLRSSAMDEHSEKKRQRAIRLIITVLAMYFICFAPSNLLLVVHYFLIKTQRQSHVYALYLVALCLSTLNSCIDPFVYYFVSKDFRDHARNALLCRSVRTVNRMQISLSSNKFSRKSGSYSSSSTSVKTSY
QUANTITY_NAME: Inhibitory activity on the PAR2-dependent saliva secretion (%)
Give the number; % is assumed, so skip it.

// worked examples, Inhibitory activity on the PAR2-dependent saliva secretion (%) included
COMPOUND: CC(C)CN(c1cc(-c2cc(F)c(F)c(F)c2)nc2cc(C(=O)N3C[C@@H]4[C@@H](CC(=O)O)[C@@H]4C3)nn12)[C@@H](C)c1ccccc1
VALUE_UNIT: %
NUMERIC_RESULT: 98.2

COMPOUND: Cc1cccc(C)c1N(C)c1cc(C2CCC(C)(C)CC2)nc2cc(C(=O)N3CC[C@@H](CC(=O)O)[C@@H](F)C3)nn12 (relative stereo)
VALUE_UNIT: %
NUMERIC_RESULT: 86.7

The record that follows has no Inhibitory activity on the PAR2-dependent saliva secretion (%) shown yet.
[ask] Requested read-out Inhibitory activity on the PAR2-dependent saliva secretion (%), target or system PAR2 (Mus musculus, UniProt P55086), entry CCCN(c1cc(-c2cc(F)c(Cl)c(F)c2)nc2cc(C(=O)N3CC[C@@H](CC(=O)O)[C@@H](C)C3)nn12)C(C)C (relative stereo)
[reply] 95.1
